Source listed as PubChem BioAssay.

Assay: HUVEC growth inhibition – cell-based, human, primary screen (AID 575);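 note: 100% = median of untreated cell wells with 0.1% DMSO on each plate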
Details: HUVEC proliferation, CellTiter-Glo luminescence, 72 h; at 10 µM; stronger effect = lower value
Rule for this label: MET means viability is less than 90%; NOT MET means viability is at least 90%.

A selection of reference data follows.
[in] I wonder whether `Cn1c(=O)[nH]c(=O)c2c1nc(N(CCO)Cc1ccccc1)n2Cc1ccccc1Cl` has viability below 90%. Can you tell?
[out] MET

[in] I wonder whether `O=S(=O)(NCc1ccccc1)c1ccc2c(c1)OCCO2` has viability below 90%. Can you tell?
[out] NOT MET

Continuing:
[in] I wonder whether `O=C(N1CCCCCC1)N1CCN(C(=O)N2CCOCC2)CC1` has viability below 90%. Can you tell?
[out] NOT MET

[in] I wonder whether CC(=O)NC(Cc1cc(C)ccc1C)C(=O)N1CCN(C(=O)Nc2ccc(C(C)=O)cc2)CC1 (stereo not given) has viability below 90%. Can you tell?
[out] NOT MET

###

Some compounds, each annotated with its measured inhibition.
Experiment: growth suppression of yeast trafficking mutant, preliminary HTS, modulators of trafficking downstream of Golgi apparatus project, 1536-format plate, OD 615 nm (AID 637)
Details: yeast transport mutant growth, absorbance 615 nm, 18 h; stronger effect = higher value
Give the number; % is assumed, so skip it.

Entry CCOc1ccccc1NC(=O)N1CCCC1C(=O)Nc1nnc(CC)s1 (stereo unspecified) , inhibition reported as -0.83

Continuing:
Entry `CCOC(=O)c1nnn(CC(=O)Nc2cccc(OC)c2)c1C(=O)OCC` , inhibition reported as 0.98

Entry `COc1ccc(OCC(=O)N2CCN(C(=O)Cc3ccccc3)CC2)cc1` , inhibition reported as 23.2

Entry `O=C(Nc1cccc(F)c1)c1cccc(S(=O)(=O)N2CCOCC2)c1` , inhibition reported as -5.71

Entry CCCCN(CCCC)CCCNC(=O)CC1Oc2ccc(C)cc2NC1=O (stereo unspecified) , inhibition reported as -3.17

Entry `Cn1c(Cc2csc(N)n2)nnc1SCC(=O)NCc1ccccc1` , inhibition reported as -4.52

###

Experiment: HUVEC growth inhibition – cell-based, human, primary screen (AID 575);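 note: 100% = median of untreated cell wells with 0.1% DMSO on each plate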
Conditions: HUVEC proliferation, CellTiter-Glo luminescence, 72 h; at 10 µM; stronger effect = lower value
Peptide text beside a SMILES is read from it. * marks the point of attachment. Boc = CC(C)(C)OC(=O)*
Some compounds, each annotated with its measured viability.
Give the number; % is assumed, so skip it.

Example cases with answers are listed next.
Entry `CCOC(=O)N1CCN(c2cc(=O)n(-c3ccc(OCC)cc3)c(=O)[nH]2)CC1` , viability reported as 104

Entry CC(C)CC(NC(=O)OC(C)(C)C)C(=O)NC(C(=O)NC(C)C(N)=O)C(C)C (stereo not drawn) (Boc-Leu-Val-Ala-NH2; configuration not given here) , viability reported as 94.2

Entry `O=C(NCc1cccs1)C1CCN(S(=O)(=O)c2cccs2)CC1` , viability reported as 89.8

Entry `COc1cccc(-n2c(C)nc3c(cnn3-c3ccc(C)cc3)c2=O)c1` , viability reported as 79.6

Entry `Cc1nc2ccc(NC(=O)N3CCOCC3)cc2s1` , viability reported as 93.8

Entry Cc1ccc(NC(=O)C2CCCN2C(=O)Oc2ccccc2)cc1 (centres undefined) , viability reported as 107

Entry `Cc1cccc(Nc2nc3c(c(=O)n(C)c(=O)n3C)n2Cc2ccccc2)c1` , viability reported as 93.2

Entry `c1ccc2c(c1)CNc1ccccc1C2` , viability reported as 73.5

Entry CCCCCc1c(O)nc(SCC(=O)NCC2CCCO2)[nH]c1=O (centres undefined) , viability reported as 96.9

Entry `COc1ccc(S(=O)(=O)N2CCOCC2)cc1C(=O)Nc1cc(C)on1` , viability reported as 102

Now for a further compound.
Entry `O=S(=O)(c1ccccc1)N(Cc1nc(-c2ccccc2)no1)C1CCCCC1` , viability reported as 96.1
